- Tested on: rabbit aortic rings
- EXPERIMENTAL PROTOCOL: Assay B: In vitro vascular smooth muscle response for AII (antagonist activity, pA2)
- Assay type: cell-based
- EXPERIMENTAL CONTEXT: Oryctolagus cuniculus, in vitro vascular smooth muscle response; two values per cell separated by / are separate determinations; read-out: Assay B pA2 (converted)
- Procedure: Assay B: In Vitro Vascular Smooth Muscle-response for AII The compounds of the invention were tested for antagonist activity in rabbit aortic rings. […] Angiotensin II concentration-response curves were then recorded (3×10^−10 to 1×10^−5 M). […] The effectiveness of the test compound was expressed in terms of pA2 values and were calculated according to H. O. Schild [Br. J. Pharmacol, Chemother., 2,189-206 (1947)]. […] Each test antagonist was evaluated in aorta rings from two rabbits.
TEST READOUT: Kb (nM)

compound="CCCCc1nc(C(=O)Cc2ccccc2)nn1Cc1ccc(-c2ccccc2-c2nnn[nH]2)cc1 [Compound 50]" target_or_system="rabbit aortic rings" numeric_value=19.5
compound="CCCCc1nc(C(=O)NC)nn1Cc1ccc(-c2ccccc2-c2nnn[nH]2)nc1 [Compound 257]" target_or_system="rabbit aortic rings" numeric_value=234
compound="CCCCc1nc(C(=O)CCC)nn1Cc1ccc(-c2ccccc2-c2nnn[nH]2)cc1 [Compound 30]" target_or_system="rabbit aortic rings" numeric_value=18.6
compound="CCCCc1nc2c(OCC)nnc(OCC)c2n1Cc1ccc(-c2ccccc2-c2nnn[nH]2)cc1 [Compound 112]" target_or_system="rabbit aortic rings" numeric_value=6310
compound="CCCCCc1nc(CCCCC)n(Cc2ccc(-c3ccccc3-c3nnn[nH]3)cc2)n1 [Compound 13]" target_or_system="rabbit aortic rings" numeric_value=2
compound="CCCCc1cn(CCCC)c(=O)n1Cc1ccc(-c2ccccc2-c2nnn[nH]2)cc1 [Compound 132]" target_or_system="rabbit aortic rings" numeric_value=2.51
compound="CCCCc1nc2c(O)nnc(CCC)c2n1Cc1ccc(-c2ccccc2-c2nn[nH]n2)cc1 [Compound 114]" target_or_system="rabbit aortic rings" numeric_value=398
compound="CCCCc1nc(CCCNC(=O)OC(C)(C)C)n(Cc2ccc(-c3ccccc3-c3nnn[nH]3)cc2)n1 [Compound 67]" target_or_system="rabbit aortic rings" numeric_value=1320

* * *

Each entry below carries its reported Kb.
- System: rabbit aortic rings
- EXPERIMENTAL PROTOCOL: Assay B: In vitro vascular smooth muscle response for AII (antagonist activity, pA2)
- Type: cell-based
- EXPERIMENTAL CONTEXT: Oryctolagus cuniculus, in vitro vascular smooth muscle response; two values per cell separated by / are separate determinations; read-out: Assay B pA2 (converted)
TEST READOUT: Kb (µM)

compound=CCCCc1nc(CCCC)n(Cc2ccc(-n3c(Cl)cc(Cl)c3-c3nnn[nH]3)cc2)n1 test_readout=Kb numeric_value=0.02
compound=CCCCc1nc(CC)nn1Cc1ccc(-c2ccccc2-c2nnn[nH]2)cc1 test_readout=Kb numeric_value=0.0132
compound=CCCCc1ncnn1Cc1ccc(-c2ccccc2-c2nnn[nH]2)cc1 test_readout=Kb numeric_value=0.0275
compound=CCCCc1nn(CC(=O)O)c(=O)n1Cc1ccc(-c2ccccc2-c2nn[nH]n2)cc1 test_readout=Kb numeric_value=0.0158
compound=CCCCn1nc(C(=O)CCC)nc1Cc1ccc(-c2ccccc2-c2nnn[nH]2)nc1 test_readout=Kb numeric_value=0.0135
compound=CCCCc1c(C)n(CCCC)c(=O)n1Cc1ccc(-c2ccccc2-c2nnn[nH]2)cc1 test_readout=Kb numeric_value=0.00501
compound=CCCCc1nc(C(=O)N(C)C(C)(C)C)nn1Cc1ccc(-c2ccccc2-c2nnn[nH]2)nc1 test_readout=Kb numeric_value=0.0245
compound=CCCCc1cn(-c2c(C(C)C)cccc2C(C)C)c(=O)n1Cc1ccc(-c2ccccc2-c2nnn[nH]2)cc1 test_readout=Kb numeric_value=0.288
compound=CCCCc1nc(CC2CCCCC2)n(Cc2ccc(-c3ccccc3-c3nnn[nH]3)cc2)n1 test_readout=Kb numeric_value=0.0224
compound=CCCCn1nc(/C=C/c2cccs2)nc1Cc1ccc(-c2ccccc2-c2nnn[nH]2)nc1 test_readout=Kb numeric_value=0.00646
compound=CCCCc1nc(CNC(=O)OC(C)(C)C)nn1Cc1ccc(-c2ccccc2-c2nnn[nH]2)cc1 test_readout=Kb numeric_value=0.0562
compound=CCCCc1ncnn1Cc1ccc(-c2ccccc2C(=O)O)cc1 test_readout=Kb numeric_value=0.724
compound=CCCCc1nc(C(F)(F)CCC)n(Cc2ccc(-c3ccccc3-c3nnn[nH]3)nc2)n1 test_readout=Kb numeric_value=0.0209
compound=CCCCc1nn(CC(=O)OC(C)(C)C)c(=O)n1Cc1ccc(-c2ccccc2-c2nn[nH]n2)cc1 test_readout=Kb numeric_value=0.0794
compound=CCCCc1nc(Cl)nn1Cc1ccc(-c2ccccc2C(=O)O)cc1 test_readout=Kb numeric_value=0.282
compound=CCCCc1nc(Cc2ccc(-c3ccccc3-c3nnn[nH]3)cc2)n(CCCC)n1 test_readout=Kb numeric_value=0.00234
compound="CCCCc1nn(CC(OCC(=O)OCC)c2ccccc2)c(=O)n1Cc1ccc(-c2ccccc2-c2nn[nH]n2)cc1 (stereo not drawn)" test_readout=Kb numeric_value=0.00501
compound=CCCCc1nc(CCCC)n(Cc2ccc(-c3cnccc3-c3nnn[nH]3)cc2)n1 test_readout=Kb numeric_value=0.0676
compound="CCCCc1nn(CCC(C)CC(C)(C)C)c(=O)n1Cc1ccc(-c2ccccc2-c2nn[nH]n2)cc1 (stereo not drawn)" test_readout=Kb numeric_value=0.0126
compound=CCCCc1nn(CC(=O)C23CC4CC(CC(C4)C2)C3)c(=O)n1Cc1ccc(-c2ccccc2-c2nn[nH]n2)cc1 test_readout=Kb numeric_value=0.00794
compound=CCCc1nc(CCC)n(Cc2ccc(-c3ccccc3-c3nnn[nH]3)nc2)n1 test_readout=Kb numeric_value=0.0347
compound=CCCCc1nc2c(Cl)nnc(Cl)c2n1Cc1ccc(-c2ccccc2-c2nnn[nH]2)cc1 test_readout=Kb numeric_value=0.398
compound=CCCCc1nc(CC)n(Cc2ccc(-c3ccccc3C(=O)O)cc2)n1 test_readout=Kb numeric_value=3.02
compound="CCCCc1nn(CC(O)c2cc(OC)ccc2OC)c(=O)n1Cc1ccc(-c2ccccc2-c2nn[nH]n2)cc1 (stereo not drawn)" test_readout=Kb numeric_value=0.00794
compound=CCCCc1nc(Cl)c(Cl)n1Cc1ccc(-n2cccc2C(=O)O)cc1 test_readout=Kb numeric_value=2.51
compound=CCCCn1nc(C(C)(F)F)nc1Cc1ccc(-c2ccccc2-c2nnn[nH]2)nc1 test_readout=Kb numeric_value=0.0269
compound=CCCCc1nn(C(=O)CCC)c(=O)n1Cc1ccc(-c2ccccc2-c2nn[nH]n2)cc1 test_readout=Kb numeric_value=0.00631
compound=CCCCc1nc2cnncc2n1Cc1ccc(-c2ccccc2-c2nnn[nH]2)cc1 test_readout=Kb numeric_value=0.316
compound=CCCCc1nc(C(=O)NC)n(Cc2ccc(-c3ccccc3-c3nnn[nH]3)nc2)n1 test_readout=Kb numeric_value=0.145
compound=CCCCc1nc(CCC(C)C)nn1Cc1ccc(-c2ccccc2-c2nnn[nH]2)cc1 test_readout=Kb numeric_value=0.00229
compound=CCCCc1nc(CCc2ccccc2)nn1Cc1ccc(-c2ccccc2-c2nnn[nH]2)cc1 test_readout=Kb numeric_value=0.000148
compound=CCCCc1nc(CN)n(Cc2ccc(-c3ccccc3-c3nnn[nH]3)cc2)n1 test_readout=Kb numeric_value=1.2
compound=CCCCc1cn(-c2c(C)cccc2C)c(=O)n1Cc1ccc(-c2ccccc2-c2nnn[nH]2)cc1 test_readout=Kb numeric_value=0.000851

* * *

- TARGET OR SYSTEM: angiotensin II AT1 receptor
- EXPERIMENTAL PROTOCOL: Assay A: Angiotensin II binding activity (125I-AII displacement, rat uterine membrane preparation)
pIC50: −log10 of the molar value.
Label rule, in plain words: pIC50 of 7 and up is met, under 7 is not met.

compound=CCCCc1cn(C2CCCCC2)c(=O)n1Cc1ccc(-c2ccccc2-c2nnn[nH]2)nc1 target_or_system="angiotensin II AT1 receptor" assigned_label=met
compound=CCCCn1nc(CCc2ccccc2)nc1Cc1ccc(-c2ccccc2-c2nnn[nH]2)cc1 target_or_system="angiotensin II AT1 receptor" assigned_label=met
compound=CCCCc1nc(-c2ccccc2Cl)n(Cc2ccc(-c3ccccc3-c3nnn[nH]3)nc2)n1 target_or_system="angiotensin II AT1 receptor" assigned_label="not met"
compound=CCCCc1cn(-c2ccccc2Cl)c(=O)n1Cc1ccc(-c2ccccc2-c2nnn[nH]2)nc1 target_or_system="angiotensin II AT1 receptor" assigned_label=met
compound=CCCCc1nc(C(F)(F)CCC)n(Cc2ccc(-c3ccccc3-c3nnn[nH]3)nc2)n1 target_or_system="angiotensin II AT1 receptor" assigned_label=met
compound=CCCCc1cn(C)c(=O)n1Cc1ccc(-c2ccccc2-c2nnn[nH]2)nc1 target_or_system="angiotensin II AT1 receptor" assigned_label=met
compound=CCCCn1nc(C(OCCC)OCCC)nc1Cc1ccc(-c2ccccc2-c2nnn[nH]2)nc1 target_or_system="angiotensin II AT1 receptor" assigned_label=met
compound=CCCCc1cn(CCCC)c(=O)n1Cc1ccc(-c2ccccc2-c2nnn[nH]2)nc1 target_or_system="angiotensin II AT1 receptor" assigned_label=met
compound="CCCCc1nn(CC(O)c2ccccc2)c(=O)n1Cc1ccc(-c2ccccc2-c2nn[nH]n2)cc1 (centres unmarked)" target_or_system="angiotensin II AT1 receptor" assigned_label=met
compound=CCCCc1nc(-c2ccccc2C(C)C)n(Cc2ccc(-c3ccccc3-c3nnn[nH]3)nc2)n1 target_or_system="angiotensin II AT1 receptor" assigned_label=met
compound=CCCCc1nc(CCC(C)C)n(Cc2ccc(-c3ccccc3-c3nnn[nH]3)cc2)n1 target_or_system="angiotensin II AT1 receptor" assigned_label=met
compound=CCCCc1nc(CC2CCCCC2)n(Cc2ccc(-c3ccccc3-c3nnn[nH]3)cc2)n1 target_or_system="angiotensin II AT1 receptor" assigned_label="not met"
compound=CCCCn1nc(C(OCC)OCC)nc1Cc1ccc(-c2ccccc2-c2nnn[nH]2)nc1 target_or_system="angiotensin II AT1 receptor" assigned_label=met
compound=CCCCc1nc(-c2c(F)cccc2F)nn1Cc1ccc(-c2ccccc2-c2nnn[nH]2)nc1 target_or_system="angiotensin II AT1 receptor" assigned_label=met
compound="CCCCc1cn(C2C3CC4CC(C3)C2C4)c(=O)n1Cc1ccc(-c2ccccc2-c2nnn[nH]2)nc1 (centres unmarked)" target_or_system="angiotensin II AT1 receptor" assigned_label=met
compound=CCCCc1nc(CCCN)n(Cc2ccc(-c3ccccc3-c3nnn[nH]3)cc2)n1 target_or_system="angiotensin II AT1 receptor" assigned_label="not met"
compound=CCCCn1nc(C(OC)OC)nc1Cc1ccc(-c2ccccc2-c2nnn[nH]2)nc1 target_or_system="angiotensin II AT1 receptor" assigned_label=met
compound=CCCCc1cn(CCC2CC2)c(=O)n1Cc1ccc(-c2ccccc2-c2nnn[nH]2)nc1 target_or_system="angiotensin II AT1 receptor" assigned_label=met
compound=CCCCc1nc(Cc2ccc(-c3ccccc3-c3nnn[nH]3)nc2)n(CC(CC)CC)n1 target_or_system="angiotensin II AT1 receptor" assigned_label="not met"
compound=CCCCc1nc(C(F)F)n(Cc2ccc(-c3ccccc3-c3nnn[nH]3)cc2)n1 target_or_system="angiotensin II AT1 receptor" assigned_label="not met"
compound=CCCCn1cc(CCC2CC2)n(Cc2ccc(-c3ccccc3-c3nnn[nH]3)nc2)c1=O target_or_system="angiotensin II AT1 receptor" assigned_label=met
compound=CCCCc1cn(-c2ccccc2)c(=O)n1Cc1ccc(-c2ccccc2-c2nnn[nH]2)nc1 target_or_system="angiotensin II AT1 receptor" assigned_label=met
compound=CCCCc1cn(-c2c(C)cc(C)cc2C)c(=O)n1Cc1ccc(-c2ccccc2-c2nnn[nH]2)cc1 target_or_system="angiotensin II AT1 receptor" assigned_label=met
compound=CCCc1cn(CCC)c(=O)n1Cc1ccc(-c2ccccc2-c2nnn[nH]2)nc1 target_or_system="angiotensin II AT1 receptor" assigned_label=met
